# Tested on: 885512-296-R-J2-PDC complex spheroid growth, % test/control;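 also: spheroids exposed to compounds for seven days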
# test_summary: Anticancer human tumor 885512-296-R-J2-PDC patient-derived breast carcinoma cell line growth inhibition [AhR]
# condition_info: second compound 10 µM; first compound 0.0316 µM; active compounds read low
quantity_name: viability, T/C (%)
# value in %; strip the unit string

Look over these answered cases.
Look up viability, T/C for this compound: NS(=O)(=O)OCC1CC(n2ccc3c(NC4CCc5ccccc54)ncnc32)CC1O (stereo unspecified) + Cc1cncc(-c2nc(NCCc3c[nH]c4ccccc34)c3ncn(C(C)C)c3n2)c1 10.3

Next compound: Nc1ccccc1NC(=O)c1ccc(CNC(=O)OCc2cccnc2)cc1 + CC(CO)NC(=O)c1cc(-c2ccc(Cl)cc2)nn(-c2cnn(C)c2)c1=O 82.6

Next compound: Nc1ncn(C2CC(O)C(CO)O2)c(=O)n1 (stereo unspecified) + Cc1cncc(-c2nc(NCCc3c[nH]c4ccccc34)c3ncn(C(C)C)c3n2)c1 20.7

***
Look up viability, T/C for this compound: CC1COCCN1c1cc(-c2ccnn2C)c2ccnc(-c3ccn[nH]3)c2n1 (stereo unspecified) + CC(CO)NC(=O)c1cc(-c2ccc(Cl)cc2)nn(-c2cnn(C)c2)c1=O 25.7

Next compound: COc1cccc2c1C(=O)c1c(O)c3c(c(O)c1C2=O)CC(O)(C(=O)CO)CC3OC1CC(N)C(O)C(C)O1 (stereo unspecified) + Cc1cncc(-c2nc(NCCc3c[nH]c4ccccc34)c3ncn(C(C)C)c3n2)c1 11.9

Next compound: CC1(C)CCC(CN2CCN(c3ccc(C(=O)NS(=O)(=O)c4ccc(NCC5CCOCC5)c([N+](=O)[O-])c4)c(Oc4cnc5[nH]ccc5c4)c3)CC2)=C(c2ccc(Cl)cc2)C1 + Cc1ccccc1N=Nc1ccc(NC(=O)c2ccnn2C)c(C)c1 46.4
